Data credit: patent US7408067B2

Where a name gives a salt, the structure may show the parent alone.
Listing of entries alongside the reported melting point.

Look up and report measured melting point for this entry: `CN1CCC(Sc2ccc3[nH]c(=O)[nH]c3c2)CC1` 213.8 to 214.7 °C

Look up and report measured melting point for this entry: `CN1CCC(Sc2ccc3[nH]c(=O)[nH]c(=O)c3c2)CC1` > 260 °C

Look up and report measured melting point for this entry: `CN1CCC(Sc2ccc3[nH]c(=O)n(C)c(=O)c3c2)CC1` 200.8 to 202.6 °C

Look up and report measured melting point for this entry: `CN1CCC(Sc2cc3c(cc2Cl)[nH]c(=O)n3C)CC1` 210.2 to 211.9 °C

Look up and report measured melting point for this entry: `CN1CCC(Sc2ccc3[nH]c(=O)n(C)c3c2)CC1` 196.4 to 197.6 °C

Look up and report measured melting point for this entry: CN1CCC(Sc2ccc(N)cc2)CC1 (as salt: hydrochloride) 96 to 98 °C

Look up and report measured melting point for this entry: CC(=O)Nc1ccc(SC2CCN(C)CC2)cc1 (as salt: salt) 199 to 201 °C
